# credit: patent US20250236666A1

biological target: T1, Peptide 3 (Pore Forming 2) [biot]-[C6spacer]-DGPANYNVDLPFMYS (human); assay: dose-response ELISA, biotinylated peptide on streptavidin plate, IgG 0.00282 to 500 nM, anti-Fab-HRP
T1 construct: Synthetic biotinylated peptide immobilized at 10 µg/mL on streptavidin plates; also called P3
T1 peptide: {Biotin-C6spacer}-DGPANYNVDLPFMYS
No end group written: not given here. *: point of attachment. Biotin = O=C1N[C@H]2[C@H](CS[C@H]2CCCCC(=O)*)N1; C6spacer = C6 spacer
recordedEndpoint: pEC50
Interpret pEC50 as the negative base-10 log of the concentration measured in mol/L.

pEC50 lookup needed for Monoclonal antibody P3-R5-H03 (antibody, human IgG1, kappa, V domains shown, scFv from phage display subcloned into Human IgG1 format, expressed in HEK293T; also called P3-R5-H3) VH: EVQLVESGGSLVKPGGSLRLSCAASGFTFSNAGMNWVRQAPGKGLEWISYISGSSRYINYADFVKGRFTISRDNAKNSLYLQMNSLRAEDTAVYYCVRSSSSYGMDVWGRGTLVTVSS VL: QSVLTQPASVSGSPGQSITISCAGTSSDVGGGYYVSWYQQHPGKAPKLMIYGDSNRPSGVSNRFSGSKSGNTASLTISGLQAEDEADYYCSSNTYYSTRVFGGGTKLEIKR , thanks. 9.44
